target.of.assay: UniProt Q04771
Sequence (Q04771 whole entry): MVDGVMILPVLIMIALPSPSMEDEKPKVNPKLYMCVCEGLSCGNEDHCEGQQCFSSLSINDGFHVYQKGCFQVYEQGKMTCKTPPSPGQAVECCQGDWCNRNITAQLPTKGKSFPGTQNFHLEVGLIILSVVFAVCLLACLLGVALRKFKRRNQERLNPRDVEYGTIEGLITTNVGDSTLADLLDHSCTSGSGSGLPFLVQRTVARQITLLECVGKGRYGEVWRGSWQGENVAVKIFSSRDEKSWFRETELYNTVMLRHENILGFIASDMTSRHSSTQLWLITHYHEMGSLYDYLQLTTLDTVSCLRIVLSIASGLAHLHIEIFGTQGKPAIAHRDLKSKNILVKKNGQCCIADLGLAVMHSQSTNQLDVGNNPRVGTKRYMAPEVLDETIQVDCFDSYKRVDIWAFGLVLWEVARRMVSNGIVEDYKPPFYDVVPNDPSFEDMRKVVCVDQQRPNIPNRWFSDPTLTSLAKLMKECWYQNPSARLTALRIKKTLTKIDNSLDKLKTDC
measured.quantity: IC50

Quick one: give measured IC50 for `Cc1nn2c(-c3ccnc4cc(-c5ccncc5)ccc34)cnc2cc1-c1cnn(CC2CCNCC2)c1`
< 1 nM
